Entry source: the supplement of paper PMC11908140

B1: library; numbered along this chain (parent)
chain: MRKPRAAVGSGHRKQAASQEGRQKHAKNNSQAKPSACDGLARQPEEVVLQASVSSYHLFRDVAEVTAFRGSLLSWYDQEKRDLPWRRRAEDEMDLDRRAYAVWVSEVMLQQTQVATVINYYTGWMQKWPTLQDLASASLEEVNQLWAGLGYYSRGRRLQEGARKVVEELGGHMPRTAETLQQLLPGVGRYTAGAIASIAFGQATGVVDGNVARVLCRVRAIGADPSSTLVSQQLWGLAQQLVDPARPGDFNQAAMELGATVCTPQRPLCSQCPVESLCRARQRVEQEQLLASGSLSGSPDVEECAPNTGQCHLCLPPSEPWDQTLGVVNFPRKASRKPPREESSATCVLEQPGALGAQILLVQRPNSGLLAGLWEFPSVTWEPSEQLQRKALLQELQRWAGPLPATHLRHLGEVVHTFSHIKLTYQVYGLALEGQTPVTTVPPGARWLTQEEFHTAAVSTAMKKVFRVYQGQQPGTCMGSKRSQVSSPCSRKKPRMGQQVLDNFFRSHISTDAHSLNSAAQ

Variants of: B1
EXPERIMENT_SUMMARY: 8OG:A repair function score (normalized; synonymous = 0, nonsense = -1) (normalized log-likelihood score); higher = more repair activity (WT-like);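 note: cells sorted at 72 h after reporter transfection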
MEASUREMENT_CONDITIONS: with 8OG:A DNA repair reporter (GFP) in HEK-293 MUTYH KO cells
REPORTED_PROPERTY: 8OG:A repair function score

INSERT INTO results (variant_notation, reported_property, val) VALUES
  ('R491C', '8OG:A repair function score', -0.013),
  ('Y56T', '8OG:A repair function score', -0.011),
  ('E451N', '8OG:A repair function score', 0.26),
  ('S384N', '8OG:A repair function score', -0.0929),
  ('T511Q', '8OG:A repair function score', 0.0207),
  ('T439M', '8OG:A repair function score', 0.106),
  ('L229M', '8OG:A repair function score', -0.0886),
  ('T116R', '8OG:A repair function score', 0.0298),
  ('S105L', '8OG:A repair function score', -0.798),
  ('Q265R', '8OG:A repair function score', 0.00654),
  ('W399G', '8OG:A repair function score', -0.541),
  ('V166A', '8OG:A repair function score', -0.1),
  ('D82H', '8OG:A repair function score', -0.148),
  ('H57K', '8OG:A repair function score', -0.664),
  ('H410F', '8OG:A repair function score', 0.096),
  ('H416G', '8OG:A repair function score', -0.0614),
  ('G236A', '8OG:A repair function score', 0.149),
  ('T176I', '8OG:A repair function score', -0.31),
  ('W235E', '8OG:A repair function score', -0.204),
  ('E140R', '8OG:A repair function score', -0.124),
  ('W381F', '8OG:A repair function score', -0.181),
  ('Q397P', '8OG:A repair function score', -0.645);
